biological target: human TLR8 (Homo sapiens (Human), UniProt Q9NR97); assay: TLR8 inhibition reporter assay (HEK-Blue cells, SEAP reporter, R848 stimulation); conditions: read-out: TLR8 IC50, HEK-Blue cells overexpressing human TLR8, R848 15.9 μM;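 further: compounds tested from 0.05 nM to 50 µM, 22 h at 37 °C, SEAP measured with HEK-Blue Detection, inhibition relative to agonist plus DMSO versus a known inhibitor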
Sequence (Q9NR97 27-1041): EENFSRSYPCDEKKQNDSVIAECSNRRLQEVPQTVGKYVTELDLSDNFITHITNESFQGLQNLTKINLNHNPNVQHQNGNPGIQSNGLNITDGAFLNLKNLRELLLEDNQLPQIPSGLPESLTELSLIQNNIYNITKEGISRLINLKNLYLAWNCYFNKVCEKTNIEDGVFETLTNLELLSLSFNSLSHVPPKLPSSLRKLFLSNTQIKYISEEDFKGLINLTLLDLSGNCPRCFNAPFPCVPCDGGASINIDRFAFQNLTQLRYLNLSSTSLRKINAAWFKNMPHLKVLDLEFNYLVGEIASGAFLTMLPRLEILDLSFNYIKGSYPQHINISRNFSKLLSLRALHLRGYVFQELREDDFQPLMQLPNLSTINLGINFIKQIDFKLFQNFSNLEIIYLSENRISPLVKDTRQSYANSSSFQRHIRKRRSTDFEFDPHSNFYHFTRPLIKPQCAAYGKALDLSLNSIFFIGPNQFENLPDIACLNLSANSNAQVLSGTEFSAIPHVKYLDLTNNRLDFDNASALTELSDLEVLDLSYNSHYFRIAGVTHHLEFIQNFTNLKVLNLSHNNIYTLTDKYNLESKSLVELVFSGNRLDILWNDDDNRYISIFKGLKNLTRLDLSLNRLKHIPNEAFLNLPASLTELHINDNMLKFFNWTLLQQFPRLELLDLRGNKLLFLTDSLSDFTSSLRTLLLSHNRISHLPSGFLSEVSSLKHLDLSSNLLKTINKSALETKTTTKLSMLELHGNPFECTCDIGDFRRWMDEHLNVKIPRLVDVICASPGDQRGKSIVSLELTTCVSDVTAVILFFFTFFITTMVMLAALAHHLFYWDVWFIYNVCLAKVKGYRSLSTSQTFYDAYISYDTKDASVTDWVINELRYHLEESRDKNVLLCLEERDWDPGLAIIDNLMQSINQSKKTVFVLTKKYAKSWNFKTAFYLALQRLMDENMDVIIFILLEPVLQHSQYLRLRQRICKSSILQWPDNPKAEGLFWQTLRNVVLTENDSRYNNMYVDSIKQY
VALUE_KIND: IC50 (nM)

CC(C)c1c(-c2cc(C3CC3)ncc2F)[nH]c2ccc(C3CCN(C(=O)CN(C)C)CC3)cc12 [Example 516]    190
Cc1cc(-c2[nH]c3ccc(C4CCN(C(=O)CC5CCOCC5)CC4)cc3c2C(C)C)cc(C)n1 [Example 106]    67.4
Cc1cc(-c2[nH]c3ccc(C4CCN(CCC(F)(F)F)CC4)cc3c2C(C)C)ccn1 [Example 676]    12.3
Cc1nccc(-c2[nH]c3ccc(C4CCN(C5COC5)CC4)cc3c2C(C)C)c1F [Example 730]    8.2
Cc1nccc(-c2[nH]c3ccc(C4CCN(C(=O)CN(C)C)CC4)cc3c2C(C)C)c1F [Example 587]    5.2
Cc1ccc(CN2CCC(c3ccc4[nH]c(-c5cc(C)nc(C)c5)c(C(C)C)c4c3)CC2)cn1 [Example 437]    6.7

(P) Cc1cc(-c2[nH]c3ccc(C4CCN(Cc5ncn(C)n5)CC4)cc3c2C(C)C)c(F)cn1 [Example 724]
(Q) Cc1cc(-c2[nH]c3ccc(C4CCN(C(=O)CNCCC(C)O)CC4)cc3c2C(C)C)cc(C)n1 (centres unmarked) [Example 369]
### Prompt Lab log: flag the item ( P or Q ) with the smaller IC50 figure. Please respond with the label that marks your chosen entry.
### Response P
(P: 9.6 nM, Q: 93.8 nM)
